ASSAY_SUMMARY: Pharmacokinetics of rutin after intravenous administration, non-compartmental analysis
Type: in vivo, Wistar rats
RECORDED_CONDITIONS: male, Wistar, rat, iv; rutin in plasma; pure rutin i.v. 1.45 mg/kg; read-out: Vdss
READOUT_LABEL: Vd (L/kg)

1. C[C@@H]1O[C@@H](OC[C@H]2O[C@@H](Oc3c(-c4ccc(O)c(O)c4)oc4cc(O)cc(O)c4c3=O)[C@H](O)[C@@H](O)[C@@H]2O)[C@H](O)[C@H](O)[C@H]1O [Rutin, quercetin-3-O-rutinoside] = 0.11

---

ASSAY_SUMMARY: Population pharmacokinetic modeling of rutin, intravenous administration
Type: in vivo, Wistar rats
RECORDED_CONDITIONS: Table S1; rutin i.v.; run Pure rutin: selection of model error and final model
READOUT_LABEL: k pop (h⁻¹)

1) C[C@@H]1O[C@@H](OC[C@H]2O[C@@H](Oc3c(-c4ccc(O)c(O)c4)oc4cc(O)cc(O)c4c3=O)[C@H](O)[C@@H](O)[C@@H]2O)[C@H](O)[C@H](O)[C@H]1O [Rutin, quercetin-3-O-rutinoside] = 1.48
